target: human C1s (Homo sapiens, UniProt P09871); construct: Recombinant human C1s (358–688 aa) fused with both the N-terminal IgG signal peptide; IgG signal peptide (N); His tag (C); made in house; host or cells: HEK293 cells; assay: Human C1s enzyme assay; assay type: biochemical; conditions: 95% confidence intervals in parentheses
Sequence (P09871 358-688): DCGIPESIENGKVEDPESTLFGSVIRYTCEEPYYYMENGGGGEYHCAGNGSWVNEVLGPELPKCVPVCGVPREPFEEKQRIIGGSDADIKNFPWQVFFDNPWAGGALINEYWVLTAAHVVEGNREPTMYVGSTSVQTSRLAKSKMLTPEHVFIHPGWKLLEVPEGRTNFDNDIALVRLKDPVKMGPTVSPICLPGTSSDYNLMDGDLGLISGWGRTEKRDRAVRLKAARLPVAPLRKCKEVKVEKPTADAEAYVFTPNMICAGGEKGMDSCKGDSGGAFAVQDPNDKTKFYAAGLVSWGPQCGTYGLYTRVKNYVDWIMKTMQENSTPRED
pIC50: −log10 of the molar value.
ASSAY_READOUT: pIC50

A: Nc1nncc2cc(N3CCC(c4ccccc4)CC3)ccc12
B: Cc1cccc(N2CCN(c3ccc4c(N)nncc4c3)CC2)c1
[ask] Please choose the item with the lower pIC50 value from this pair: A and B // output: label of the selected item
[reply] A
(A: 5.38, B: 6.25)

A: Nc1nncc2cc(N3CCN(c4cccc(F)c4)CC3)ccc12
B: Cc1ccccc1N1CCN(c2ccc3c(N)nncc3c2)CC1
C: Cc1ccc(N2CCN(c3ccc4c(N)nncc4c3)CC2)cc1
[ask] Order the entries by their reported pIC50, beginning at the minimum. Use the labels to give the requested order.
[reply] C, B, A
(C: 5.17, B: 5.92, A: 6.43)
